system_name: human H3 receptors (Homo sapiens)
Sequence (Q9Y5N1 whole entry): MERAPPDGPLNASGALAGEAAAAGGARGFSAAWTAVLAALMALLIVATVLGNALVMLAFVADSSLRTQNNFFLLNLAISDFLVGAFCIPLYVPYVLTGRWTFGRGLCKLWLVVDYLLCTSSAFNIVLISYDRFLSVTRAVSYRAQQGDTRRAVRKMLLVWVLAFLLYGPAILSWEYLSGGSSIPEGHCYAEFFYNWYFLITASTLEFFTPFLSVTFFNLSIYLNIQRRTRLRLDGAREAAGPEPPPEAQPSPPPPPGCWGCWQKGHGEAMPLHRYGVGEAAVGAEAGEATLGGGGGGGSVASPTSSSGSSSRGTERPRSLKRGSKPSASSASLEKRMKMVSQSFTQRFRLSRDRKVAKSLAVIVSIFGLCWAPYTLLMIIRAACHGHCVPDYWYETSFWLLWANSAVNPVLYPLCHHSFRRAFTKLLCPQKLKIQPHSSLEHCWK
test: cAMP quantification protocol for human H3 receptor testing
condition_details: inhibition of agonist-induced (100 nM histamine, 10 μM forskolin) decrease of intracellular cAMP; CHO-K1 cell line expressing human H3 receptors; read-out: Potency range (IC50 values)
Method: CHO-K1 cell line expressing human H3 receptors were purchased from Euroscreen (Gosselies, Belgium, Cat. no.: ES-392-C) Human H3 receptor-expressing cell-lines were grown in Ham's F12 [Sigma, Cat. no. N6658], supplemented with 10% FBS [Sigma, Cat. no. F9665], 400 μg/ml G418 [Sigma, Cat. no. N1876] and 250 μg/ml Zeocin [Invitrogen, Cat. no. […] cAMP Quantification Protocol for Human H3 Receptor Testing […] Specifically, a cAMP quantification assay system from DiscoveRx (cAMP XS+; Cat. no. 90-0075) was used. […]
Recorded measurements of IC50, one per entry
metric: IC50

{"columns": ["compound", "measurement"],
 "data": [
  ["CN1CCc2nc(O[C@@H]3CCN(C4CCC4)C3)ccc2C1", "100 to 500 nM"],
  ["CC(C)N1CCC(Oc2nc3c(cc2C#N)C2CCCC(=O)N2CC3)CC1 (centres unmarked)", "< 100 nM"],
  ["O=C1CCC2c3ccc(OC4CCN(C5CCCC5)CC4)nc3CCN12 (centres unmarked)", "< 100 nM"],
  ["O=C1CCCC2c3ccc(OCCCN4CCOCC4)nc3CCN12 (centres unmarked)", "500 to 5000 nM"],
  ["O=C1CCCC2c3ccc(OC4CCN(C5CCCC5)CC4)nc3CCN12 (centres unmarked)", "< 100 nM"],
  ["CN1CCc2nc(OC3CCN(C4CCC4)CC3)ccc2C1", "< 100 nM"],
  ["CN1CCc2nc(O[C@@H]3CCN(C4CCCC4)C3)ccc2C1", "100 to 500 nM"],
  ["CN1CCc2nc(OC3CCN(C4CCC4)CC3)ncc2C1", "< 100 nM"],
  ["CN1CCc2nc(OC3CCN(C4CCC4)CC3)c(C#N)cc2C1", "< 100 nM"],
  ["O=C1CCCC2c3ccc(OC4CCN(CC5CC5)CC4)nc3CCN12 (centres unmarked)", "< 100 nM"],
  ["CC(C)N1CCC(Oc2ccc3c(n2)CCN(C)C3)CC1", "< 100 nM"],
  ["O=C1CCCC2c3ccc(OCCN4CCCCC4)nc3CCN12 (centres unmarked)", "500 to 5000 nM"],
  ["N#Cc1cc2c(nc1OC1CCN(C3CCC3)CC1)CCN1C(=O)CCCC21 (centres unmarked)", "< 100 nM"],
  ["O=C1CCCC2c3ccc(O[C@H]4CCN(C5CCCC5)C4)nc3CCN12 (some centres unmarked)", "100 to 500 nM"],
  ["O=C1CCCC2c3ccc(OCCCN4CCCCC4)nc3CCN12 (centres unmarked)", "< 100 nM"],
  ["O=C1CCCC2c3ccc(OCCCCN4CCCCC4)nc3CCN12 (centres unmarked)", "100 to 500 nM"],
  ["O=C1CCCC2c3ccc(O[C@@H]4CCN(C5CCC5)C4)nc3CCN12 (mixture of isomers)", "100 to 500 nM"],
  ["O=C1CCCC2c3ccc(OCCCN4CCCC4)nc3CCN12 (centres unmarked)", "< 100 nM"],
  ["O=C1CCCC2c3ccc(OC4CCN(C5CCC5)CC4)nc3CCN12 (centres unmarked)", "< 100 nM"],
  ["CN1CCc2nc(OC3CCN(C4CC4)CC3)c(C#N)cc2C1", "< 100 nM"]
]}
